Test: PK in mice plasma
Type: in vivo
Conditions: mouse; Table 39; PO plasma, 3.18 mg/kg
quantity_measured: AUC(0-t)

[ask] Determine from records and report AUC(0-t) for `COCCN[C@H]1CS(=O)(=O)C[C@@H]1S(=O)(=O)c1ccc(Cl)cc1`
[reply] 116 ng·h/mL

----------
Assay: PK in rat plasma
Assay type: in vivo
Details: plasma, po; PK in mouse and dog; species of the value not stated; read-out: orally bioavailable (absorbance)
quantity_measured: bioavailability

[ask] Determine from records and report bioavailability for `COCCN[C@H]1CS(=O)(=O)C[C@@H]1S(=O)(=O)c1ccc(Cl)cc1`
[reply] ~33%

----------
Experiment: PK in mice plasma
Assay type: in vivo
Details: mouse; Table 39; PO plasma, 3.18 mg/kg
quantity_measured: CL/F (mL/min/kg)
Numbers only, in mL/min/kg.

[ask] Determine from records and report CL/F for `COCCN[C@H]1CS(=O)(=O)C[C@@H]1S(=O)(=O)c1ccc(Cl)cc1`
[reply] 452

----------
Target: NR2F6 (Homo sapiens)
Construct: expressed in transfected cells; also transient transfection
Sequence (P10588 1-404): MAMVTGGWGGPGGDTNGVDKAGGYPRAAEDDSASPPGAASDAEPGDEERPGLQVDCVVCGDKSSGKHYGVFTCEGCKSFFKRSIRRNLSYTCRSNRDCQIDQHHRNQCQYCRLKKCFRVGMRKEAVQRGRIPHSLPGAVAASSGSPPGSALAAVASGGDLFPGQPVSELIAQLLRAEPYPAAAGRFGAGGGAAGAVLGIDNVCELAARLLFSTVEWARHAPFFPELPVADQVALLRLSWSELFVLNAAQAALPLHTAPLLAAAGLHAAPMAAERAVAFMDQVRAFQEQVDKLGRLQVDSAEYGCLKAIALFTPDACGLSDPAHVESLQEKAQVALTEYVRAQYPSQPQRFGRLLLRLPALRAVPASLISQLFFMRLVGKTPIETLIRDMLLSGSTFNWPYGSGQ
Experiment: NR2F6 agonist screening, Firefly signal cmpd/DMSO
Type: cell-based
Conditions: Table 13; ratio of Firefly in NR2F6 stable clone F4 to pGL4
For each of the compounds below, state its Firefly, NR2F6 stable (clone F4)/pGL4.
Give bare numbers.

Here is how some compounds turned out for Firefly, NR2F6 stable (clone F4)/pGL4.
{"smi": "COc1cccc(NC(=O)c2ccc3oc(=O)c(S(=O)(=O)c4ccc(C)cc4)cc3c2)c1", "Firefly, NR2F6 stable (clone F4)/pGL4": 9.9}
{"smi": "COc1cccc(NC(=O)c2ccc3oc(=O)c(S(=O)(=O)c4ccc(F)cc4)cc3c2)c1", "Firefly, NR2F6 stable (clone F4)/pGL4": 5.7}
{"smi": "O=c1oc2ccc(F)cc2cc1S(=O)(=O)c1ccc(F)cc1", "Firefly, NR2F6 stable (clone F4)/pGL4": 9.6}

Let us examine a further case.
[ask] Determine from records and report Firefly, NR2F6 stable (clone F4)/pGL4 for `Cc1ccc(S(=O)(=O)c2cc3cc(Cl)ccc3oc2=O)cc1Cl`
[reply] 5.0

----------
Assay: PK in mice plasma
Assay type: in vivo
Settings: mouse; Table 41; IV plasma, 1.12 mg/kg
quantity_measured: Cmax (ng/mL)
Numbers only, in ng/mL.

[ask] Determine from records and report Cmax for `COCCN[C@H]1CS(=O)(=O)C[C@@H]1S(=O)(=O)c1ccc(Cl)cc1`
[reply] 390
